- PROCEDURE_DETAILS: Plasma clearance in fasted Wistar-Han rat measured up to 24 hrs by LC-MS/MS analysis
- Type: ADME
PARAMETER_MEASURED: clearance (mL/min/kg)

C=CC(=O)N1C[C@H](C)N(c2nc(=O)n3c4nc(c(F)cc24)-c2c(F)cccc2OCC(F)(F)CCc2ccnc(C(C)C)c2-3)C[C@H]1C; 9.7
C=CC(=O)N1C[C@H](C)N(c2nc(=O)n3c4nc(c(F)cc24)-c2c(F)ccc(F)c2OCCOc2ccnc(C(C)C)c2-3)C[C@H]1C; 13
C=CC(=O)N1C[C@H](C)N(c2nc(=O)n3c4nc(c(F)cc24)-c2c(F)cc(F)cc2OCC(F)(F)CCc2ccnc(C(C)C)c2-3)C[C@H]1C; 10

* * *

- ASSAYED_SYSTEM: GTPase KRas (Homo sapiens, UniProt P01116, G12C)
- Sequence (P01116 whole entry G12C): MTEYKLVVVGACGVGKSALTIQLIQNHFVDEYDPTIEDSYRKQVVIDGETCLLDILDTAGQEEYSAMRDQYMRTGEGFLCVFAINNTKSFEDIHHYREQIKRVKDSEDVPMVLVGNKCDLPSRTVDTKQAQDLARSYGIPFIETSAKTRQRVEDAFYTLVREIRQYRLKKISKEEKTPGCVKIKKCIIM
- PROCEDURE_DETAILS: Inhibition of recombinant biotinylated KRAS G12C mutant (unknown origin) assessed as human SOS catalyzed nucleotide exchange measured after 60 mins by TR-FRET based guanine nucleotide exchange assay
PARAMETER_MEASURED: IC50 (nM)

// worked examples, IC50 included
C=CC(=O)N1C[C@H](C)N(c2nc(=O)n3c4nc(c(F)cc24)-c2c(ccc(F)c2F)OCC(F)(F)CCc2ccnc(C(C)C)c2-3)C[C@H]1C; 3
C=CC(=O)N1CCN(c2nc(=O)n3c4nc(c(F)cc24)-c2c(F)cccc2OCCCCc2ccnc(C(C)C)c2-3)[C@@H](C)C1; 1.2
C=CC(=O)N1CCN(c2nc(=O)n3c4nc(c(F)cc24)-c2c(F)cccc2OCCCc2ccnc(C(C)C)c2-3)[C@@H](C)C1; 4.3
C=CC(=O)N1C[C@H](C)N(c2nc(=O)n3c4nc(c(F)cc24)-c2c(F)cccc2OCCCc2ccnc(C(C)C)c2-3)C[C@H]1C; 1.7
C=CC(=O)N1C[C@H](C)N(c2nc(=O)n3c4nc(c(F)cc24)-c2c(F)cccc2OCCOc2ccnc(C(C)C)c2-3)C[C@H]1C; 6.5

[a] C=CC(=O)N1C[C@H](C)N(c2nc(=O)n3c4nc(c(F)cc24)-c2c(ccc(F)c2F)OCCOc2ccnc(C(C)C)c2-3)C[C@H]1C
[b] C=CC(=O)N1C[C@H](C)N(c2nc(=O)n3c4nc(c(F)cc24)-c2c(F)cccc2OCC(F)(F)CCc2ccnc(C(C)C)c2-3)C[C@H]1C
Request: Could you determine which record has the numerically smaller IC50? Candidates: a and b In your reply, give the label of the chosen option.
Response: b
(b: 2.9 nM, a: 5.3 nM)

* * *

- PROCEDURE_DETAILS: Oral bioavailability in fasted Wistar-Han rat measured up to 24 hrs by LC-MS/MS analysis
- Format: ADME, organism-based
- MEASUREMENT_PARAMETERS: in vivo
PARAMETER_MEASURED: bioavailability (%)

// worked examples, bioavailability included
C=CC(=O)N1C[C@H](C)N(c2nc(=O)n3c4nc(c(F)cc24)-c2c(ccc(F)c2F)OCC(F)(F)CCc2ccnc(C(C)C)c2-3)C[C@H]1C; 42
C=CC(=O)N1C[C@H](C)N(c2nc(=O)n3c4nc(c(F)cc24)-c2c(F)cccc2OCCOc2ccnc(C(C)C)c2-3)C[C@H]1C; 5
C=CC(=O)N1C[C@H](C)N(c2nc(=O)n3c4nc(c(F)cc24)-c2c(F)cc(F)cc2OCCOc2ccnc(C(C)C)c2-3)C[C@H]1C; 12
C=CC(=O)N1C[C@H](C)N(c2nc(=O)n3c4nc(c(F)cc24)-c2c(F)cccc2OCC(F)(F)CCc2ccnc(C(C)C)c2-3)C[C@H]1C; 12
C=CC(=O)N1C[C@H](C)N(c2nc(=O)n3c4nc(c(Cl)cc24)-c2c(F)ccc(F)c2OCCOc2ccnc(C(C)C)c2-3)C[C@H]1C; 61

[1] C=CC(=O)N1C[C@H](C)N(c2nc(=O)n3c4nc(c(F)cc24)-c2c(F)cc(F)cc2OCC(F)(F)CCc2ccnc(C(C)C)c2-3)C[C@H]1C
[2] C=CC(=O)N1C[C@H](C)N(c2nc(=O)n3c4nc(c(F)cc24)-c2c(ccc(F)c2F)OCCOc2ccnc(C(C)C)c2-3)C[C@H]1C
[3] C=CC(=O)N1CCN(c2nc(=O)n3c4nc(c(F)cc24)-c2c(F)cccc2OCCCCc2ccnc(C(C)C)c2-3)[C@@H](C)C1
[4] C=CC(=O)N1C[C@H](C)N(c2nc(=O)n3c4nc(c(F)cc24)-c2c(F)ccc(F)c2OCCOc2ccnc(C(C)C)c2-3)C[C@H]1C
[5] C=CC(=O)N1C[C@H](C)N(c2nc(=O)n3c4nc(c(C)cc24)-c2c(F)ccc(F)c2OCCOc2ccnc(C(C)C)c2-3)C[C@H]1C
Request: Place the items in sequence of falling bioavailability. Put the labels in the order asked and list them.
Response: 1, 4, 5, 2, 3

* * *

- ASSAYED_SYSTEM: GTPase KRas (Homo sapiens, UniProt P01116, G12C)
- PROCEDURE_DETAILS: Inhibition of KRAS G12C mutant in human NCI-H358 cells assessed as reduction in Erk1/2 phosphorylation level measured for 8 hrs by Western blot analysis
- Type: cell-based
PARAMETER_MEASURED: IC50 (µM)

// worked examples, IC50 included
C=CC(=O)N1CCN(c2nc(=O)n3c4nc(c(Cl)cc24)-c2c(F)cccc2OCCc2ccccc2-3)[C@@H](C)C1; 3.83
C=CC(=O)N1C[C@H](C)N(c2nc(=O)n3c4nc(c(F)cc24)-c2c(ccc(F)c2F)OCC(F)(F)CCc2ccnc(C(C)C)c2-3)C[C@H]1C; 0.0052
C=CC(=O)N1CCN(c2nc(=O)n3c4nc(c(F)cc24)-c2c(F)cccc2OCCCc2ccnc(C(C)C)c2-3)[C@@H](C)C1; 0.0054

[1] C=CC(=O)N1C[C@H](C)N(c2nc(=O)n3c4nc(c(F)cc24)-c2c(F)ccc(F)c2OCCOc2ccnc(C(C)C)c2-3)C[C@H]1C
[2] C=CC(=O)N1C[C@H](C)N(c2nc(=O)n3c4nc(c(F)cc24)-c2c(ccc(F)c2F)OCCOc2ccnc(C(C)C)c2-3)C[C@H]1C
[3] C=CC(=O)N1CCN(c2nc(=O)n3c4nc(c(F)cc24)-c2c(F)cccc2OCCCCc2ccnc(C(C)C)c2-3)[C@@H](C)C1
[4] C=CC(=O)N1C[C@H](C)N(c2nc(=O)n3c4nc(c(F)cc24)-c2c(F)cc(F)cc2OCCOc2ccnc(C(C)C)c2-3)C[C@H]1C
Request: Place the items in sequence of falling IC50. Put the labels in the order asked and list them.
Response: 1, 4, 2, 3
(1: 0.028 µM, 4: 0.016 µM, 2: 0.01 µM, 3: 0.0048 µM)

* * *

- PROCEDURE_DETAILS: Plasma clearance in fasted Wistar-Han rat measured up to 24 hrs by LC-MS/MS analysis
- Assay type: ADME
PARAMETER_MEASURED: clearance (mL/min/kg)

// worked examples, clearance included
C=CC(=O)N1C[C@H](C)N(c2nc(=O)n3c4nc(c(C)cc24)-c2c(F)ccc(F)c2OCCOc2ccnc(C(C)C)c2-3)C[C@H]1C; 12
C=CC(=O)N1C[C@H](C)N(c2nc(=O)n3c4nc(c(F)cc24)-c2c(F)cccc2OCCOc2ccnc(C(C)C)c2-3)C[C@H]1C; 49
C=CC(=O)N1C[C@H](C)N(c2nc(=O)n3c4nc(c(Cl)cc24)-c2c(F)ccc(F)c2OCCOc2ccnc(C(C)C)c2-3)C[C@H]1C; 22
C=CC(=O)N1C[C@H](C)N(c2nc(=O)n3c4nc(c(F)cc24)-c2c(ccc(F)c2F)OCC(F)(F)CCc2ccnc(C(C)C)c2-3)C[C@H]1C; 13
C=CC(=O)N1C[C@H](C)N(c2nc(=O)n3c4nc(c(F)cc24)-c2c(F)cc(F)cc2OCCOc2ccnc(C(C)C)c2-3)C[C@H]1C; 40

[A] C=CC(=O)N1CCN(c2nc(=O)n3c4nc(c(F)cc24)-c2c(F)cccc2OCCCCc2ccnc(C(C)C)c2-3)[C@@H](C)C1
[B] C=CC(=O)N1C[C@H](C)N(c2nc(=O)n3c4nc(c(F)cc24)-c2c(ccc(F)c2F)OCCOc2ccnc(C(C)C)c2-3)C[C@H]1C
Request: Could you determine which record has the numerically smaller clearance? Candidates: A and B In your reply, give the label of the chosen option.
Response: B
(B: 26 mL/min/kg, A: 80 mL/min/kg)

* * *

- PROCEDURE_DETAILS: Plasma clearance in male Beagle dog measured up to 24 hrs by LC-MS/MS analysis
- Type: ADME, Canis lupus familiaris
PARAMETER_MEASURED: clearance (mL/min/kg)

C=CC(=O)N1C[C@H](C)N(c2nc(=O)n3c4nc(c(F)cc24)-c2c(F)ccc(F)c2OCCOc2ccnc(C(C)C)c2-3)C[C@H]1C; 32

[A] C=CC(=O)N1C[C@H](C)N(c2nc(=O)n3c4nc(c(F)cc24)-c2c(F)cccc2OCC(F)(F)CCc2ccnc(C(C)C)c2-3)C[C@H]1C
[B] C=CC(=O)N1C[C@H](C)N(c2nc(=O)n3c4nc(c(F)cc24)-c2c(ccc(F)c2F)OCC(F)(F)CCc2ccnc(C(C)C)c2-3)C[C@H]1C
[C] C=CC(=O)N1C[C@H](C)N(c2nc(=O)n3c4nc(c(Cl)cc24)-c2c(F)ccc(F)c2OCCOc2ccnc(C(C)C)c2-3)C[C@H]1C
Request: Place the items in sequence of falling clearance. Put the labels in the order asked and list them.
Response: C, A, B
(C: 28 mL/min/kg, A: 18 mL/min/kg, B: 7.3 mL/min/kg)
